assay-target: GCase (Homo sapiens)
Construct: endogenous in cells; host or cells: HeLa cells
Sequence (P04062 40-536): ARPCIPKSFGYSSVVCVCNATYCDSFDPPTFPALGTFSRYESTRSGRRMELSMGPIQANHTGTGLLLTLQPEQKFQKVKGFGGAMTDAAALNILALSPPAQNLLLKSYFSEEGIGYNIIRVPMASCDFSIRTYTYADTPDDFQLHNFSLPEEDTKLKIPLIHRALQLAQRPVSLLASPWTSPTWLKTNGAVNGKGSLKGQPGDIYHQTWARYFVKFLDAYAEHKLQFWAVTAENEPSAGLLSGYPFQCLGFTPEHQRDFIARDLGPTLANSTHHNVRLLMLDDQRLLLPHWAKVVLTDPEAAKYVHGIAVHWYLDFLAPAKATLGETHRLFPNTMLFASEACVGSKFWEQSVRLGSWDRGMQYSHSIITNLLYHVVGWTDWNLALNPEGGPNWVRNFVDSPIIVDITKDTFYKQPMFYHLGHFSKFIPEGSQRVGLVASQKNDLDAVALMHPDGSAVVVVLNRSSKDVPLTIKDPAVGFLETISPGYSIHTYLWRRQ
test-details: activation of GCase in a live cell PFB assay in HELA cells
Assay type: cell-based
test-context: EC50 given as range classes
Protocol: Exemplary compounds were evaluated for activation of GCase in a live cell PFB assay in HELA cells (essentially as described in Ysselstein et al., “LRRK2 kinase activity regulates lysosomal glucocerebrosidase in neurons derived from Parkinson's disease patients” Nature Communications (2019) 10:5570). […] EC50 ranges: A: <10 μM; B: >10-50 μM; C: >50-100 μM; D: >100 μM.
pEC50: −log10 of the molar value.
assay-metric: pEC50

                                    compound  assay_metric  observed_measurement
 0  Cc1nc(N2CCC3(CCN(c4ccc5c(C)nn(CC(F)F)c5n4)CC3)C2)cc(C(F)(F)F)n1         pEC50                > 5.00
 1  O=C1N(c2ccc(C(F)(F)F)cn2)CCC12CC1CCC(C2)N1c1cnc2cnn(CC(F)F)c2n1 (centres unmarked)         pEC50          4.30 to 5.00
 2  O=C1CC2(CN1c1cncc(C(F)(F)F)n1)C1CCC2CN(c2cnc3cnn(CC(F)F)c3n2)C1 (centres unmarked)         pEC50          4.30 to 5.00
 3  Cn1c(N2CCC3(CCN(c4ccnc(C(F)(F)F)c4)C3)CC2)nc2c(cnn2CC(F)F)c1=O         pEC50                > 5.00
 4  Cc1nc(N2CCC3(CC2)CN(c2cnc4c(C)nn(CC(F)F)c4n2)C3)cc(C(F)(F)F)n1         pEC50                > 5.00
 5  COc1cccc(C(=O)N2CC3(CCN(c4cnc5cnn(CC(F)F)c5n4)C3)C2)c1         pEC50                > 5.00
 6  FC(F)Cn1ncc2ncc(NC3CCC4(CCN(c5cc(C(F)(F)F)ccn5)CC4)C3)nc21 (centres unmarked)         pEC50                < 4.00
 7  Cc1nc(N2CC3(CCN(c4ccc5cnn(CC(F)F)c5n4)CC3)C2)cc(C(F)(F)F)n1         pEC50                > 5.00
 8  Cc1nc(N2CCC3(CC2)CN(c2cnc4cnn(C5COC5)c4n2)C3)cc(C(F)(F)F)n1         pEC50          4.30 to 5.00
 9  FC(F)Cn1ncc2ncc(N3CCC4(CCCN(c5ccnc(C(F)(F)F)c5)C4)CC3)nc21         pEC50                > 5.00
10  Cc1nn(CC(F)F)c2nc(N3CCC4(CCN(c5cc(C(F)(F)F)ccn5)C4)CC3)cnc12         pEC50          4.30 to 5.00
11  FC(F)Cn1ncc2ncc(N3CCC4(CCN(c5cccc(C(F)(F)F)n5)CC4)CC3)nc21         pEC50                > 5.00
12  O=C1CC2(CCN(c3ncc4cnn(CC(F)F)c4n3)CC2)CN1c1ccc(C(F)(F)F)nc1         pEC50          4.30 to 5.00
13  FC(F)Cn1ncc2ncc(NC3CCC4(C3)CN(c3ccc(C(F)(F)F)nc3)C4)nc21 (centres unmarked)         pEC50                > 5.00
14  FC(F)(F)c1ccc(N2CCC3(CCN(c4cncc(-c5nncs5)n4)CC3)C2)cn1         pEC50                > 5.00
15  FC(F)Cn1ncc2ncc(N3CCC4(CN(c5cncc(Cl)c5)C4)C3)nc21         pEC50          4.30 to 5.00
16  FC(F)Cn1ncc2ncc(N3CCC4(CN(c5ccnc(OC(F)(F)F)c5)C4)C3)nc21         pEC50          4.30 to 5.00
17  CCN1C(=O)N(c2ccnc(C(F)(F)F)c2)C(=O)C12CCN(c1cnc3cnn(C4COC4)c3n1)CC2         pEC50          4.30 to 5.00
18  Cc1cc(N2CC3(CCN(c4cnc5c(C)nn(CC(F)(F)F)c5n4)C3)C2)nc(C(F)(F)F)n1         pEC50          4.30 to 5.00
19  O=C1CC2(CCN(c3cnc4cnn(CC(F)F)c4n3)CC2)CN1Cc1ccc(Cl)cn1         pEC50          4.30 to 5.00

These entries and their values trace back to patent US20250034170A1.
